Provenance of the data: ChEMBL document CHEMBL3112550

biological target: UniProtKB Q7ZJM1; test: Inhibition of HIV-1 integrase expressed in Escherichia coli using [32P]-labeled U5B/U5A DNA as substrate assessed as inhibition of 3'-processing reaction after 2 hrs by PAGE analysis in presence of Mg2+
Sequence (Q7ZJM1 whole entry): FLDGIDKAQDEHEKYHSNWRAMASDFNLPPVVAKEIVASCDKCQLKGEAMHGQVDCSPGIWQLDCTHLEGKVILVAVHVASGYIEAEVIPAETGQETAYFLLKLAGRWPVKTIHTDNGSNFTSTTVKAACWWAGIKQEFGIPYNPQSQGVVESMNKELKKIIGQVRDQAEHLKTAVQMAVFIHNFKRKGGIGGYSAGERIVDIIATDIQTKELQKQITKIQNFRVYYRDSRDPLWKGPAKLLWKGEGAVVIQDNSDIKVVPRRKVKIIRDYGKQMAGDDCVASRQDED
readout_type: pIC50
Scale for pIC50: -log10 of concentration given in mol/L; no unit attached.

Example entries and their recorded answers appear below.
O=P(O)(O)C(O)(Cc1ccc(Cl)c(Cl)c1)P(=O)(O)O :: 4.46
O=P(O)(O)C(O)(Cc1ccc(Cl)cc1)P(=O)(O)O :: 4.70
NC(Cc1ccc(Cl)c(Cl)c1)(P(=O)(O)O)P(=O)(O)O :: 5.15
O=P(O)(O)C(Cc1ccc(Cl)c(Cl)c1)(Cc1ccc(Cl)c(Cl)c1)P(=O)(O)O :: 4.70

Asked: Tell me reported pIC50 for `O=P(O)(O)C(Cc1ccc(Cl)c(Cl)c1)P(=O)(O)O` , tested with UniProtKB Q7ZJM1.
Given back: 4.52
